# system: CDK4/cyclin D3 (Homo sapiens, UniProt P11802)
# Construct: made in house; host or cells: insect cells (baculovirus co-infection)
# Sequence (P11802 whole entry): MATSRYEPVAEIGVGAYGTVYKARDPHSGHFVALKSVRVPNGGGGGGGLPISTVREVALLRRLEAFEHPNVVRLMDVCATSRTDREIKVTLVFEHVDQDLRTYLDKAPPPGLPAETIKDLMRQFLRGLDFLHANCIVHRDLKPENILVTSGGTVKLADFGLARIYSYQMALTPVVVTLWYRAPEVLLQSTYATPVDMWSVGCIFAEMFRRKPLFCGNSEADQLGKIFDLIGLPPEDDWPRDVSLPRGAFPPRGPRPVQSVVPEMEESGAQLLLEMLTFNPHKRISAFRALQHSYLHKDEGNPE
# Sequence (P30281 1-264 partner limits assumed): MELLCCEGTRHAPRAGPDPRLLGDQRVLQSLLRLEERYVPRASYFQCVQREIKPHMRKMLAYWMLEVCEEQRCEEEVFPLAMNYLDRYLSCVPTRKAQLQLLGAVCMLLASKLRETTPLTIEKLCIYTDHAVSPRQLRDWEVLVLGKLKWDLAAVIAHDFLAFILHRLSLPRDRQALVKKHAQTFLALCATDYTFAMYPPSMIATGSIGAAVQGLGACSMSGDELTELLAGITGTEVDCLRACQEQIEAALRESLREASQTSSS
# test: Inhibition of CDK4/Cyclin D retinoblastoma kinase activity;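 note: relative to DMSO control wells without compound minus no-enzyme background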
# Assay type: biochemical
# experimental.conditions: test compound at 1 μM (head line shifted: 'mM' printed beside 'Structure'); read-out: % Inhib CDK4/D @ 1 μM
measured.attribute: inhibition at 1 µM (%)

Lookup: Short answer please: inhibition at 1 µM, CDK4/cyclin D3 (Homo sapiens, UniProt P11802), entry CN(C)CCCS(=O)(=O)c1ccc(Nc2nc(N)c(C(=O)c3c(Cl)cccc3Cl)s2)cc1
Found: 25.8

Lookup: Entry to check: CC(C)(CO)CSc1ccc(Nc2nc(N)c(C(=O)c3c(Cl)cccc3Cl)s2)cc1
Found: 50.3

Lookup: Entry to check: CC(C)CCSc1ccc(Nc2nc(N)c(C(=O)c3c(Cl)cccc3Cl)s2)cc1
Found: 35.3

(I) Nc1nc(Nc2cccc(SCCN3CCCCC3)c2)sc1C(=O)c1c(Cl)cccc1Cl
(II) Nc1nc(Nc2cccc([S+]([O-])CC(=O)Nc3ccccc3)c2)sc1C(=O)c1c(Cl)cccc1Cl (centres unmarked)
Lookup: Record comparison, field inhibition at 1 µM: mark the lower of I and II . Please identify the chosen entry by its label.
Found: II
